Conditions: 1 h
QUANTITY: Anionic 1 h, mL separation (mL)
One number for each entry, in mL.

Okay, here is my list. What is Anionic 1 h, mL separation for each of these?
1. C[N+](C)([O-])CCCNC(=O)CCCCCCC/C=C/CCCCCCCC(=O)NCCC[N+](C)(C)CC(=O)[O-] [Mix-37, C18 DiDMAPA Betaine AO]
2. COC(=O)CCCCCCC/C=C/CCCCCCCC(=O)NCCC[N+](C)(C)CC(=O)[O-]
3. C[N+](C)(C)CCCNC(=O)CCCCCCC/C=C/CCCCCCCC(=O)NCCC[N+](C)(C)C
4. C=CCCCCCCCC[N+](C)(C)C
5. CCCC(CCCCCCCC(=O)NCCC[N+](C)(C)CC(=O)[O-])S(=O)(=O)[O-].[Na+] (stereo not shown) [C12-23, C12 DMAPA Betaine Sulfonate]

Result:
[0, 0, 0, 0, 0]

Please give Anionic 1 h, mL separation, item by item, for the list that follows.
1. CCCCCC/C=C/CCCCCCCC(=O)NCCC[N+](C)(C)CC(=O)[O-]
2. C[N+](C)(CCCNC(=O)CCCCCCC/C=C/CCCCCCCC(=O)NCCC[N+](C)(C)CC(O)CS(=O)(=O)[O-])CC(O)CS(=O)(=O)[O-] (stereo not shown)

Result:
1. 0
2. 0

----------
Provide the reported Nonionic 1 h, mL separation of each item.
Details: 1 h
Numbers only, in mL.

1) C[N+](C)(CCCNC(=O)CCCCCCC/C=C/CCCCCCCC(=O)NCCC[N+](C)(C)CC(O)CS(=O)(=O)[O-])CC(O)CS(=O)(=O)[O-] (stereo not drawn) [Mix-31, C18 DiSulfobetaine] = 0
2) C[N+](C)(CCCNC(=O)CCCCCCCCC(CCCCCCCC(=O)NCCC[N+](C)(C)CC(=O)[O-])S(=O)(=O)[O-])CC(=O)[O-].[Na+] (stereo not drawn) [C18-33, C18 DiBetaine Sulfonate] = 1

Shifting focus to the compound that follows.
Query: Suppose we examine the compound COC(=O)CCCCCCC/C=C/CCCCCCCC(=O)NCCC[N+](C)(C)CC(=O)[O-] [Mix-48, C18 Ester DMAPA Betaine] ; what Nonionic 1 h, mL separation value has been reported?
Result: 0

----------
Conditions: 24 h
QUANTITY: Anionic 24 h, mL separation (mL)
Give bare numbers, in mL.

Reference set (8 entries):
1) CN(C)CCCNC(=O)CCCCCCC/C=C/CCCCCCCC(=O)NCCC[N+](C)(C)CC(=O)[O-] [C18-36, C18 DiDMAPA MonoBetaine] = 0
2) CCCCCC/C=C/CCCCCCCC(=O)NCCC[N+](C)(C)CC(=O)[O-] = 0.25
3) CCCC(CCCCCCCC(=O)NCCC[N+](C)(C)CC(=O)[O-])S(=O)(=O)[O-].[Na+] (centres unmarked) [C12-23, C12 DMAPA Betaine Sulfonate] = 0
4) CC/C=C/CCCCCCCC(=O)NCCC[N+](C)(C)CC(O)CS(=O)(=O)[O-] (centres unmarked) = 0
5) C=CCCCCCCCC(=O)NCCC[N+](C)(C)CC(=O)[O-] = 0
6) C[N+](C)(CCCNC(=O)CCCCCCCC=CCCCCCCCC(=O)NCCC[N+](C)(C)CC(=O)[O-])CC(=O)[O-] (mixture of isomers) = 0
7) CC/C=C/CCCCCCCC[N+](C)(C)Cc1ccccc1 = 0
8) C[N+](C)(C)CCCNC(=O)CCCCCCC/C=C/CCCCCCCC(=O)NCCC[N+](C)(C)C = 0

Answer for every listed entry: what is its Anionic 24 h, mL separation? The entries follow.
1. C=CCCCCCCCC(=O)NCCC[N+](C)(C)CC(O)CS(=O)(=O)[O-] (centres unmarked)
2. C=CCCCCCCCC[N+](C)(C)C
3. C[N+](C)(CCCNC(=O)CCCCCCCCC(CCCCCCCC(=O)NCCC[N+](C)(C)CC(=O)[O-])S(=O)(=O)[O-])CC(=O)[O-].[Na+] (centres unmarked) [C18-33, C18 DiBetaine Sulfonate]
4. C[N+](C)([O-])CCCNC(=O)CCCCCCC/C=C/CCCCCCCC(=O)NCCC[N+](C)(C)CC(=O)[O-]

Result:
[0, 0, 0, 0]

Please report Anionic 24 h, mL separation for every entry that follows.
1. COC(=O)CCCCCCC/C=C/CCCCCCCC(=O)NCCC[N+](C)(C)CC(=O)[O-]
2. C[N+](C)(C)CCCNC(=O)CCCCCCC/C=C/CCCCCCCC(=O)NCCC[N+](C)(C)[O-]

Result:
[0, 0]

----------
Conditions: 1 h
QUANTITY: Anionic 1 h, mL separation (mL)
Numbers only, in mL.

The following compounds have reported results that may help.
1. C[N+](C)(CCCNC(=O)CCCCCCCC=CCCCCCCCC(=O)NCCC[N+](C)(C)CC(=O)[O-])CC(=O)[O-] (mixture of isomers) [Mix-32, C18 DiBetaine] = 0
2. C[N+](C)(C)CCCNC(=O)CCCCCCCCC(CCCCCCCC(=O)NCCC[N+](C)(C)C)S(=O)(=O)O.[Na+] (stereo not drawn) [C18-28, C18 DiDMAPA DiQuat Sulfonate] = 0

--- query ---
Query: So what does the record say about Anionic 1 h, mL separation for CC/C=C/CCCCCCCC(=O)NCCC[N+](C)(C)CC(=O)[O-] [C12-22, C12 DMAPA Betaine] ?
Result: 0

----------
Provide the recorded Nonionic 24 h, mL separation for the entries that follow.
Conditions: 24 h
One number for each entry, in mL.

Some solved cases for reference:
1. CC/C=C/CCCCCCCC(=O)NCCC[N+](C)(C)CC(O)CS(=O)(=O)[O-] (stereo not drawn) = 1
2. CCCC(CCCCCCCC(=O)NCCC[N+](C)(C)CC(=O)[O-])S(=O)(=O)[O-].[Na+] (stereo not drawn) [C12-23, C12 DMAPA Betaine Sulfonate] = 0.25
3. CN(C)CCCNC(=O)CCCCCCC/C=C/CCCCCCCC(=O)NCCC[N+](C)(C)CC(=O)[O-] = 0
4. COC(=O)CCCCCCC/C=C/CCCCCCCC(=O)NCCC[N+](C)(C)CC(=O)[O-] = 0.5
5. C[N+](C)(C)CCCNC(=O)CCCCCCC/C=C/CCCCCCCC(=O)NCCC[N+](C)(C)C = 0

Query: Please look up its Nonionic 24 h, mL separation: C[N+](C)([O-])CCCNC(=O)CCCCCCC/C=C/CCCCCCCC(=O)NCCC[N+](C)(C)CC(=O)[O-]
Result: 0

----------
Conditions: 1 h
QUANTITY: Anionic 1 h, mL separation (mL)
Numbers only, in mL.

Examples with their reported Anionic 1 h, mL separation follow.
1. C[N+](C)(CCCNC(=O)CCCCCCCCC(CCCCCCCC(=O)NCCC[N+](C)(C)CC(=O)[O-])S(=O)(=O)[O-])CC(=O)[O-].[Na+] (stereo not drawn) [C18-33, C18 DiBetaine Sulfonate] = 0
2. CC/C=C/CCCCCCCC(=O)NCCC[N+](C)(C)CC(O)CS(=O)(=O)[O-] (stereo not drawn) [C12-24, C12 DMAPA Sulfobetaine] = 0

Turning now to a further compound:
Query: For the compound shown here, C[N+](C)(C)CCCNC(=O)CCCCCCC/C=C/CCCCCCCC(=O)NCCC[N+](C)(C)[O-] [Mix-35, C18 DiDMAPA Quat AO] , give the reported Anionic 1 h, mL separation.
Result: 0
